Hi there, I'd appreciate the recorded Apo-One Apoptosis Assay, 12.5 ng/ml for every entry that follows.
Biological target: human CD3 (human) (UniProt P07766)
Sequence (P07766 23-207): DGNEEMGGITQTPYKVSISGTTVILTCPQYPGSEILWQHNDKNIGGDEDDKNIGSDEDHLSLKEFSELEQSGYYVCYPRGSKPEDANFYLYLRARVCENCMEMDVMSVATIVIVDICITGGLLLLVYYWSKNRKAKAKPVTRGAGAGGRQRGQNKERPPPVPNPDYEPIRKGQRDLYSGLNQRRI
Assay: cell-based or functional assay
Give bare numbers.

| binder | Apo-One Apoptosis Assay, 12.5 ng/ml |
| --- | --- |
| anti-CD3 HuFR antibody 5 (heavy chain BD20611, light chain BD21134) (antibody, part only; not given: Heavy stretch before framework 4, V domains shown, part only) VH, part: QVQLVESGAEVKKPGASVKVSCKASGYTFTRYTMHWVRQAPGKGLEWMGYINPSRGYTNYNQKFKDRLTISKDTSKNQVVLTMTNMDPVDTATYYCARYYDDHYCLDYVTVSSASTKGPS VL: EIVMTQSPATLSVSPGERATLSCSASSSVSYMNWYQQKPGQPPKLLIYDTSKLASGVPSRFSGSGSGTEFTLTISSLQPDDFATYYCQQWSSNPFTFGQGTKVEIKFGQGTKVEIKR | 1160 |

Look at each binder and report its Apo-One Apoptosis Assay, 12.5 ng/ml.
1. anti-CD3 HuFR antibody 1 (heavy chain BD20610, light chain BD21130) (antibody, part only; not given: Heavy stretch before framework 4, V domains shown, part only) VH, part: QVQLVESGAEVKKPGASVKVSCKASGYTFTRYTMHWVRQAPGKGLEWMGYINPSRGYTNYNQKFKDRVTISVDTSKNQFSLKLSSVTAADTAVYYCARYYDDHYCLDYVTVSSASTKGPS VL: DIQMTQSPSSLSASVGDRVTITCSASSSVSYMNWYQQKPGQPPKLLIYDTSKLASGVPDRFSGSGSGTDFTLKISRVEAEDVGVYYCQQWSSNPFTFGQGTKVEIKFGQGTKVEIKR
2. anti-CD3 HuFR antibody 9 (heavy chain BD20613, light chain BD21138) (antibody, part only; not given: few VH framework 4 residues, V domains shown, part only) VH, part: QVQLQESGPGLVKPSETLSLTCAVSGYTFTRYTMHWVRQAPGKGLEWVGYINPSRGYTNYNQKFKDRFTISRDDSKNTAYLQMNSLKTEDTAVYYCTRYYDDHYCLDYVTVSSASTKGPS VL: DIQMTQSPSTLSASVGDRVTITCSASSSVSYMNWYQQKPGKAPKLLIYDTSKLASGVPDRFSGSGSGTDFTLKISRVEAEDVGVYYCQQWSSNPFTFGQGTKVEIKFGQGTKVEIKR
3. anti-CD3 HuFR antibody 6 (heavy chain BD20611, light chain BD21135) (antibody, part only; not given: Heavy stretch before framework 4, V domains shown, part only) VH, part: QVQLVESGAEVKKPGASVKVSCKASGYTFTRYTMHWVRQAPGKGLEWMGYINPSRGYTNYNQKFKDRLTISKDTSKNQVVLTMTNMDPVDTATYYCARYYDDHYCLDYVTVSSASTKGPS VL: EIVMTQSPATLSVSPGERATLSCSASSSVSYMNWYQQKPGQAPRLLIYDTSKLASGVPDRFSGSGSGTDFTLTISSLQAEDVAVYYCQQWSSNPFTFGQGTKVEIKFGQGTKVEIKR

Resp:
1. 797
2. 885
3. 1280
